Target: EIF2AK3 (PERK) catalytic domain (amino acids 536-1116) (Homo sapiens)
Construct: EIF2AK3 (PERK) catalytic domain (amino acids 536-1116)
Sequence (Q9NZJ5 536-1116): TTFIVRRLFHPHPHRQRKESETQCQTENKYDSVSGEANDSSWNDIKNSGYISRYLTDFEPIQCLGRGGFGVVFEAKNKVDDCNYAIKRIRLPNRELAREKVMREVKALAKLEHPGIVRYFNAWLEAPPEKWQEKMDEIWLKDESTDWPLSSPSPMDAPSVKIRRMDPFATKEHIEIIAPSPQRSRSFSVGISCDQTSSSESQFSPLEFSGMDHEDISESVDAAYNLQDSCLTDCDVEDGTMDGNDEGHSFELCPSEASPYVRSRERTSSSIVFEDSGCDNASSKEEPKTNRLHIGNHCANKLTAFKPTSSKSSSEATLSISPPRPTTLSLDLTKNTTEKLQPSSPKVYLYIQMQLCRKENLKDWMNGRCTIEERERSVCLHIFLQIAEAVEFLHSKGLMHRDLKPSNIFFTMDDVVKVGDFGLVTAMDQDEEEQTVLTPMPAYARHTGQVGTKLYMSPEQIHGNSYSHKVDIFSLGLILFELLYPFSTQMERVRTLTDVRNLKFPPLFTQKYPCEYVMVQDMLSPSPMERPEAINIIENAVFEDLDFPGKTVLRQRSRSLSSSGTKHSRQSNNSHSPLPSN
Test: PERK in vitro activity assay (isolated), TR-FRET kinase assay
Type: biochemical
Details: isolated PERK enzyme, 1.5 μM ATP; read-out: Biochemical IC50
Text: PERK In Vitro Activity Assay (Isolated): […] Express and purify HIS-SUMO-GCN2 catalytic domain (amino acids 584-1019) from E. coli. […] Monitor the resulting fluorescence in an EnVison® Multilabel reader (PerkinElmer, Waltham, Mass.). […]
MEASURE: IC50

Here's what some known entries look like.
Cc1nc(N)c2c(-c3ccc(NC(=O)C(O)c4cccc(F)c4)cc3)cn(C)c2n1 (stereo not shown) [Example 23]: 1 to 25 nM
Cc1nc(N)c2c(-c3ccc(NC(=O)C(O)c4ccccc4F)cc3C)cn(C)c2n1 (stereo not shown): 101 to 250 nM
Cc1cc(NC(=O)C(O)c2cccc(F)c2)cc(F)c1-c1cn(C)c2ncnc(N)c12 (stereo not shown): 1 to 25 nM

Query molecule follows.
Summary for this molecule, Cc1nc(N)c2c(-c3ccc(NC(=O)C(O)c4cc(F)cc(C(F)(F)F)c4)cc3C)cn(C)c2n1 (single isomer, unassigned) [Example 54] : IC50 is 1 to 25 nM

* * *

Target: EIF2AK3 (PERK) catalytic domain (amino acids 536-1116) (Homo sapiens, UniProt Q9NZJ5)
Construct: EIF2AK3 (PERK) catalytic domain (amino acids 536-1116)
Assay: PERK in vitro activity assay (isolated), TR-FRET kinase assay
Assay type: biochemical
Conditions: isolated PERK enzyme, 1.5 μM ATP; read-out: Biochemical IC50
Text: PERK In Vitro Activity Assay (Isolated): […] Express and purify HIS-SUMO-GCN2 catalytic domain (amino acids 584-1019) from E. coli. […] Monitor the resulting fluorescence in an EnVison® Multilabel reader (PerkinElmer, Waltham, Mass.). […]
MEASURE: IC50

Summary for this molecule, COc1ccc(CC(=O)Nc2ccc(-c3cn(C)c4ncnc(N)c34)c(C)c2)cc1 [Example 141] : IC50 is 51 to 100 nM
